Every entry's value here was drawn from paper PMC8746328.

# Test system: Staphylococcus aureus (ATTC 25923)
readout.name: MIC (µg/mL)
Answers are plain numbers, in µg/mL.

[[record]]
compound = "COc1cc(O)c(-c2oc3cc(O)cc(O)c3c(=O)c2CC=C(C)C)cc1O"
endpoint_value = 4


Okay, here is my list. What is MIC for each of these?
1. CC1(C)C=Cc2c(cc3oc4c(c(=O)c3c2O)CC2c3c(c(O)cc(O)c3-4)OC2(C)C)O1 (stereo not drawn)
2. COc1cc(O)c2c(c1)O[C@H](c1ccc(O)cc1O)CC2=O
3. COc1cc([C@@H]2CC(=O)c3c(O)cc(O)cc3O2)ccc1O
4. COc1cc2oc(-c3ccc(O)cc3O)c(CC=C(C)C)c(=O)c2c(O)c1/C=C/C(C)C
5. Cc1onc(-c2ccccc2)c1C(=O)N[C@@H]1C(=O)N2[C@@H]1SC(C)(C)[C@@H]2C(=O)O [Oxa, Oxacillin, reference compound]
6. CC(C)=CCCC(C)=CCCC(C)=CCc1cc(-c2cc(=O)c3c(O)cc(O)cc3o2)ccc1O
7. CC(C)=CC(O)c1c(-c2cc(O)c(O)cc2O)oc2cc(O)cc(O)c2c1=O (stereo not drawn) [Compound 2, 3-(Hydroxyprenyl) isoetin]

Result:
4
64
256
2
0.125
256
16

---

# assayed.system: tyrosinase enzyme
# procedure.text: Enzymatic antityrosinase activity, dopachrome method (L-Dopa substrate)
# Format: biochemical
# condition.summary: pH 6.8, 25 °C
readout.name: IC50 on tyrosinase inhibitory activity

[[record]]
molecule = "COc1cc2oc(-c3ccc(O)cc3O)c(CC=C(C)C)c(=O)c2c(O)c1/C=C/C(C)C"
readout_name = "IC50 on tyrosinase inhibitory activity"
endpoint_value = ">200 µg/mL"


Okay, here is my list. What is IC50 on tyrosinase inhibitory activity for each of these?
1. O=C1C[C@@H](c2ccc(O)cc2)Oc2cc(O)cc(O)c21
2. CC(C)=CC(O)c1c(-c2cc(O)c(O)cc2O)oc2cc(O)cc(O)c2c1=O (stereo not shown) [Compound 2, 3-(Hydroxyprenyl) isoetin]
3. COc1cc(O)c2c(c1)O[C@H](c1ccc(O)cc1O)CC2=O
4. CC1(C)C=Cc2c(cc3oc4c(c(=O)c3c2O)CC2c3c(c(O)cc(O)c3-4)OC2(C)C)O1 (stereo not shown)
5. CC(C)=CCCC(C)=CCCC(C)=CCc1cc(-c2cc(=O)c3c(O)cc(O)cc3o2)ccc1O
6. COc1cc(O)c(-c2oc3cc(O)cc(O)c3c(=O)c2CC=C(C)C)cc1O

Result:
>200 µg/mL
>200 µg/mL
38.78 ± 1.02 µg/mL
>200 µg/mL
135.70 ± 1.16 µg/mL
>200 µg/mL

---

# System: methicillin-resistant Staphylococcus aureus (DMST20654)
# procedure.text: Antimicrobial activity, broth microdilution
# Type: cell-based
# condition.summary: MRSA, read-out: MIC
readout.name: MIC

Past entries and their recorded results:
[[record]]
compound = "CC(C)=CC(O)c1c(-c2cc(O)c(O)cc2O)oc2cc(O)cc(O)c2c1=O (stereo not shown) [Compound 2, 3-(Hydroxyprenyl) isoetin]"
readout_name = "MIC"
endpoint_value = "16 µg/mL"

[[record]]
compound = "CC(C)=CCCC(C)=CCCC(C)=CCc1cc(-c2cc(=O)c3c(O)cc(O)cc3o2)ccc1O"
readout_name = "MIC"
endpoint_value = "> 256 µg/mL"

[[record]]
compound = "COc1cc([C@@H]2CC(=O)c3c(O)cc(O)cc3O2)ccc1O"
readout_name = "MIC"
endpoint_value = "> 256 µg/mL"


Query: Could you tell me which MIC is on file for CC1(C)C=Cc2c(cc3oc4c(c(=O)c3c2O)CC2c3c(c(O)cc(O)c3-4)OC2(C)C)O1 (stereo not shown) ?
Result: 16 µg/mL
